# testDetails: Permeability under sink conditions (previous study / calculated for Figure 11)
# Assay type: in vitro ADME
# experimentalConditions: not told, given in Figure 11
measuredEndpoint: Papp

Recorded Papp of COC1=CC(=O)C[C@@H](C)[C@]12Oc1c(Cl)c(OC)cc(OC)c1C2=O [griseofulvin] , please. 250 ×10⁻⁶ cm/s
